Test: Metabolic stability in rat liver microsomes
Format: in vitro ADME
Conditions: pH 7.4, oridonin alone, read-out: metabolic half-life (t1/2)

| ENTRY SMILES | UNIT STRING | half-life at 1 µM |
| --- | --- | --- |
| C=C1C(=O)[C@]23[C@H](O)[C@H]1CC[C@H]2[C@@]12CO[C@]3(O)[C@@H](O)[C@@H]1C(C)(C)CC[C@@H]2O | min | 34.6 |

----------
Assay: In vivo pharmacokinetic study of oridonin in rats with or without verapamil pre-treatment
Details: Sprague-Dawley, rat, plasma, po, intragastrical oridonin (40 mg/kg; n = 6, mean ± SD), pre-treatment of verapamil (10 mg/kg/day for 7 days)

| ENTRY SMILES | UNIT STRING | MRT |
| --- | --- | --- |
| C=C1C(=O)[C@]23[C@H](O)[C@H]1CC[C@H]2[C@@]12CO[C@]3(O)[C@@H](O)[C@@H]1C(C)(C)CC[C@@H]2O | h | 11.5 |

----------
Assay: In vivo pharmacokinetic study of oridonin in rats with or without verapamil pre-treatment
Details: Sprague-Dawley, rat, plasma, po, intragastrical oridonin (40 mg/kg; n = 6, mean ± SD), control without verapamil

| ENTRY SMILES | Tmax |
| --- | --- |
| C=C1C(=O)[C@]23[C@H](O)[C@H]1CC[C@H]2[C@@]12CO[C@]3(O)[C@@H](O)[C@@H]1C(C)(C)CC[C@@H]2O | 1 h |

----------
Test: Bidirectional transport across Caco-2 cell transwell model
Format: in vitro ADME
Settings: human, pH 7.4; Caco-2, oridonin 2 µM, without verapamil
Experimental: The Caco-2 cell line was obtained from the American Type Culture Collection (Manassas, VA, USA), and it was performed according to the previous study (Liu et al. [2018]). […] The transepithelial electrical resistance (TEER) of the monolayer cells was measured using Millicell ERS-2 (Millipore Corporation, Billerica, MA, USA), and TEER exceeding 400 Ω·cm^2 was used for the flux experiment. […]

| ENTRY SMILES | efflux ratio at 2 µM |
| --- | --- |
| C=C1C(=O)[C@]23[C@H](O)[C@H]1CC[C@H]2[C@@]12CO[C@]3(O)[C@@H](O)[C@@H]1C(C)(C)CC[C@@H]2O | 1.67 |

----------
Test system: P-gp
Assay: Bidirectional transport across Caco-2 cell transwell model
Type: in vitro ADME
Conditions: human; Caco-2, digoxin 25 µM, P-gp substrate validation, without verapamil
MEASUREMENT NAME: efflux ratio at 25 µM

| COMPOUND | OBSERVED MEASUREMENT |
| --- | --- |
| C[C@H]1O[C@@H](O[C@H]2[C@@H](O)C[C@H](O[C@H]3[C@@H](O)C[C@H](O[C@H]4CC[C@@]5(C)[C@H](CC[C@@H]6[C@@H]5C[C@@H](O)[C@]5(C)[C@@H](C7=CC(=O)OC7)CC[C@]65O)C4)O[C@@H]3C)O[C@@H]2C)C[C@H](O)[C@@H]1O [digoxin] | 10.1 |

----------
Experiment: In vivo pharmacokinetic study of oridonin in rats with or without verapamil pre-treatment
Details: Sprague-Dawley, rat, plasma, po, 40 mg/kg, intragastrical oridonin (40 mg/kg; n = 6, mean ± SD), control without verapamil
Experimental: To evaluate the effects of verapamil on the pharmacokinetics of oridonin, the rats were divided into two groups of six animals each. […] The pharmacokinetic parameters, including the area under the plasma concentration-time curve (AUC), maximal plasma concentration (Cmax), the time for the maximal plasma concentration (Tmax), and the mean residence time (MRT) were calculated using the DAS 3.0 pharmacokinetic software (Chinese Pharmacological Association, Anhui, China).

| COMPOUND | Cmax / ng/mL |
| --- | --- |
| C=C1C(=O)[C@]23[C@H](O)[C@H]1CC[C@H]2[C@@]12CO[C@]3(O)[C@@H](O)[C@@H]1C(C)(C)CC[C@@H]2O [oridonin] | 147 |

----------
Experiment: In vivo pharmacokinetic study of oridonin in rats with or without verapamil pre-treatment
Settings: Sprague-Dawley, rat, plasma, po, intragastrical oridonin (40 mg/kg; n = 6, mean ± SD), control without verapamil

| ENTRY SMILES | AUC(0-t) |
| --- | --- |
| C=C1C(=O)[C@]23[C@H](O)[C@H]1CC[C@H]2[C@@]12CO[C@]3(O)[C@@H](O)[C@@H]1C(C)(C)CC[C@@H]2O | 1310 ng·h/mL |

----------
Assay: In vivo pharmacokinetic study of oridonin in rats with or without verapamil pre-treatment
Conditions: Sprague-Dawley, rat, plasma, po, intragastrical oridonin (40 mg/kg; n = 6, mean ± SD), control without verapamil

| COMPOUND | UNIT STRING | half-life |
| --- | --- | --- |
| C=C1C(=O)[C@]23[C@H](O)[C@H]1CC[C@H]2[C@@]12CO[C@]3(O)[C@@H](O)[C@@H]1C(C)(C)CC[C@@H]2O [oridonin] | h | 10.9 |

----------
Assay: Metabolic stability in rat liver microsomes
Format: in vitro ADME
Settings: pH 7.4, oridonin alone, read-out: intrinsic clearance rate
MEASUREMENT NAME: microsomal CLint at 1 µM (µL/min/mg)

| ENTRY SMILES | MEASUREMENT NAME | UNIT STRING | OBSERVED MEASUREMENT |
| --- | --- | --- | --- |
| C=C1C(=O)[C@]23[C@H](O)[C@H]1CC[C@H]2[C@@]12CO[C@]3(O)[C@@H](O)[C@@H]1C(C)(C)CC[C@@H]2O | microsomal CLint at 1 µM | µL/min/mg | 40.1 |

----------
Experiment: Bidirectional transport across Caco-2 cell transwell model
Assay type: in vitro ADME
Conditions: human, with verapamil (concentration not stated); Caco-2, oridonin 2 µM, basolateral to apical, verapamil present
Procedure: The Caco-2 cell line was obtained from the American Type Culture Collection (Manassas, VA, USA), and it was performed according to the previous study (Liu et al. [2018]). […] The transepithelial electrical resistance (TEER) of the monolayer cells was measured using Millicell ERS-2 (Millipore Corporation, Billerica, MA, USA), and TEER exceeding 400 Ω·cm^2 was used for the flux experiment. […]
MEASUREMENT NAME: Papp B→A at 2 µM

| ENTRY SMILES | OBSERVED MEASUREMENT |
| --- | --- |
| C=C1C(=O)[C@]23[C@H](O)[C@H]1CC[C@H]2[C@@]12CO[C@]3(O)[C@@H](O)[C@@H]1C(C)(C)CC[C@@H]2O | 0.222 ×10⁻⁶ cm/s |

----------
Assay: In vivo pharmacokinetic study of oridonin in rats with or without verapamil pre-treatment
Settings: Sprague-Dawley, rat, plasma, po, intragastrical oridonin (40 mg/kg; n = 6, mean ± SD), pre-treatment of verapamil (10 mg/kg/day for 7 days)
Protocol: To evaluate the effects of verapamil on the pharmacokinetics of oridonin, the rats were divided into two groups of six animals each. […] The pharmacokinetic parameters, including the area under the plasma concentration-time curve (AUC), maximal plasma concentration (Cmax), the time for the maximal plasma concentration (Tmax), and the mean residence time (MRT) were calculated using the DAS 3.0 pharmacokinetic software (Chinese Pharmacological Association, Anhui, China).
MEASUREMENT NAME: AUC(0-t)

| COMPOUND | MEASUREMENT NAME | OBSERVED MEASUREMENT |
| --- | --- | --- |
| C=C1C(=O)[C@]23[C@H](O)[C@H]1CC[C@H]2[C@@]12CO[C@]3(O)[C@@H](O)[C@@H]1C(C)(C)CC[C@@H]2O [oridonin] | AUC(0-t) | 2230 ng·h/mL |

----------
Assay: In vivo pharmacokinetic study of oridonin in rats with or without verapamil pre-treatment
Conditions: Sprague-Dawley, rat, plasma, po, intragastrical oridonin (40 mg/kg; n = 6, mean ± SD), pre-treatment of verapamil (10 mg/kg/day for 7 days)

| COMPOUND | UNIT STRING | half-life |
| --- | --- | --- |
| C=C1C(=O)[C@]23[C@H](O)[C@H]1CC[C@H]2[C@@]12CO[C@]3(O)[C@@H](O)[C@@H]1C(C)(C)CC[C@@H]2O [oridonin] | h | 13.7 |

----------
Assay: Metabolic stability in rat liver microsomes
Type: in vitro ADME
Conditions: pH 7.4, with verapamil 0.1 µM, verapamil present, read-out: intrinsic clearance rate

| ENTRY SMILES | microsomal CLint at 1 µM [µL/min/mg] |
| --- | --- |
| C=C1C(=O)[C@]23[C@H](O)[C@H]1CC[C@H]2[C@@]12CO[C@]3(O)[C@@H](O)[C@@H]1C(C)(C)CC[C@@H]2O | 36.1 |

----------
Test: In vivo pharmacokinetic study of oridonin in rats with or without verapamil pre-treatment
Details: Sprague-Dawley, rat, plasma, po, intragastrical oridonin (40 mg/kg; n = 6, mean ± SD), pre-treatment of verapamil (10 mg/kg/day for 7 days)
Description: To evaluate the effects of verapamil on the pharmacokinetics of oridonin, the rats were divided into two groups of six animals each. […] The pharmacokinetic parameters, including the area under the plasma concentration-time curve (AUC), maximal plasma concentration (Cmax), the time for the maximal plasma concentration (Tmax), and the mean residence time (MRT) were calculated using the DAS 3.0 pharmacokinetic software (Chinese Pharmacological Association, Anhui, China).

| COMPOUND | UNIT STRING | Cmax |
| --- | --- | --- |
| C=C1C(=O)[C@]23[C@H](O)[C@H]1CC[C@H]2[C@@]12CO[C@]3(O)[C@@H](O)[C@@H]1C(C)(C)CC[C@@H]2O [oridonin] | ng/mL | 194 |
